# MEASUREMENT_PROTOCOL: Determination of brain/plasma AUC ratio after tail vein injection
# Assay type: in vivo
# MEASUREMENT_PARAMETERS: mouse, intravenous, 0.0875 mg/mouse, mice, 0.10 mL of 0.875 mg/mL, AUC0-∞ from median plasma and brain concentrations
Where a name gives a salt, the structure may show the parent alone.
# Kp annotations
ENDPOINT_NAME: Kp

> print(dat)
                                    compound  observed
 1  COc1ccc(N(C)c2nc(C)nc3ccccc23)cn1 [Example 33]      5.82
 2  Cc1nc(N(C)c2ccc(N(C)C)cc2)c2ccccc2n1 [Example 35]      16.1
 3  COc1ccc(N(C)c2nc(N(C)C(C)=O)nc3ccccc23)cc1 [Example 51]      23.3
 4  CNc1nc(N(C)c2ccc(OC)nc2)c2ccccc2n1 [Example 40]        10
 5  COc1ccc(N(C)c2ccnc3ccccc23)cc1 [Example 17]      9.16
 6  COc1ccc(N(C)c2nc(Cl)nc3ccccc23)cc1 [Example 1]        30
 7  COc1ccc(N(C)c2nc(OC)nc3ccccc23)cc1 [Example 11]      6.14
 8  COc1ccc(N(C)c2nc(C)nc3ccccc23)cc1 [Example 21, hydrochloride]      19.7
 9  CNc1nc(N(C)c2ccc(OC)cc2)c2ccccc2n1 [Example 39]      6.44
10  CNc1ccc(N(C)c2nc(C)nc3ccccc23)cc1 [Example 43]      14.1
